# Assay Method Text: XRPD re-analysis after GVS isotherm
# Assay type: physicochemical
# Protocol Conditions: after isotherm at 90% RH and 25° C.

{"Compound": "Cc1cc(OC/C=C(/c2ccc(F)cc2)c2ccc(C#CCN3CCOCC3)cc2)ccc1OCC(=O)[O-].[Na+] [Form 3]", "Solid State Form After GVS (XRPD)": "Form 1"}
{"Compound": "Cc1cc(OC/C=C(/c2ccc(F)cc2)c2ccc(C#CCN3CCOCC3)cc2)ccc1OCC(=O)[O-].[Na+] [Form 5]", "Solid State Form After GVS (XRPD)": "Form 1"}

---

# Assay Method Text: Gravimetric Vapor Sorption (GVS)
# Assay type: physicochemical
# Protocol Conditions: 25° C., w/w
Marks after values point to notes of the source that are not given here.
Assay Readout: Reversible Water Uptake between 0-90% RH

{"Compound": "Cc1cc(OC/C=C(/c2ccc(F)cc2)c2ccc(C#CCN3CCOCC3)cc2)ccc1OCC(=O)[O-].[Na+] [Form 1]", "Measurement": "~13.0% †"}
{"Compound": "Cc1cc(OC/C=C(/c2ccc(F)cc2)c2ccc(C#CCN3CCOCC3)cc2)ccc1OCC(=O)[O-].[Na+] [Pattern 9]", "Measurement": "~27%"}
{"Compound": "Cc1cc(OC/C=C(/c2ccc(F)cc2)c2ccc(C#CCN3CCOCC3)cc2)ccc1OCC(=O)[O-].[Na+] [Form 2]", "Measurement": "~25%"}
{"Compound": "Cc1cc(OC/C=C(/c2ccc(F)cc2)c2ccc(C#CCN3CCOCC3)cc2)ccc1OCC(=O)[O-].[Na+] [Form 5]", "Measurement": "~11%"}
{"Compound": "Cc1cc(OC/C=C(/c2ccc(F)cc2)c2ccc(C#CCN3CCOCC3)cc2)ccc1OCC(=O)[O-].[Na+] [Form 4]", "Measurement": "~23%"}

// moving on: another record for Reversible Water Uptake between 0-90% RH
[Q] Given the entry Cc1cc(OC/C=C(/c2ccc(F)cc2)c2ccc(C#CCN3CCOCC3)cc2)ccc1OCC(=O)[O-].[Na+] [Form 3] , report its measured Reversible Water Uptake between 0-90% RH.
[A] ~9.0%
